# Test system: MOLT-4 leukemia
# MEASUREMENT_DESCRIPTION: NCI-60 one-dose screen, 48 h (100 = growth as untreated, 0 = no growth, -100 = all killed)
# RECORDED_CONDITIONS: 10 µM unless noted
Compounds without any hit were thinned out: in the full panel of roughly 83,000, 20% have a hit. The source made the active and inactive calls. The calls were made as follows: active = growth percent below 10; inactive = the rest.
PARAMETER: growth

May I ask what growth has been recorded for CSc1nc2c(c(=O)n1C)C1(C(=O)N(Cc3ccccc3)c3ccccc31)c1c(nc(SC)n(C)c1=O)N2 ?
99.9% (inactive)

Same thing, different compound: CC(C)[C@H]1CCC2=C3CC[C@]45OC(=O)[C@@]6(CCC(C)(C)C[C@H]64)CC[C@@]5(C)[C@]3(C)CC[C@@]21C
26.5% [100 µM] (inactive)

Same thing, different compound: CCN(CC)c1ccc2cc(NC(=O)OCCNC(=O)CCNC(=O)[C@H](CC(C)C)NC(=O)C(C)(C)NC(=O)C(C)(C)NC(=O)[C@H](CC(C)C)NC(=O)CCNC(=O)C(C)(C)NC(=O)[C@H](CC(C)C)NC(=O)CCNC(=O)[C@@](C)(CC)NC(=O)[C@H](C)NC(=O)CCNC(=O)C(C)(C)NC(=O)[C@H](C)NC(=O)[C@@H]3CCCN3C(=O)[C@@](C)(CC)NC(=O)[C@H](Cc3ccccc3)NC(=O)C3CCCN3C(=O)C(C)(C)NC(=O)C3CCCN3C(=O)C(C)(C)NC(C)=O)c(=O)oc2c1 (stereo partly specified)
-62% (active)

Same thing, different compound: CCOC(=O)C(C(C)=O)c1nc2sc3cc(Cl)c(Cl)cc3n2c(=O)c1C#N (stereo unspecified)
89.6% (inactive)

Same thing, different compound: Oc1ccc(N=Nc2nccs2)c(O)c1
11.8% (inactive)

Same thing, different compound: CC(C)[N+](C)(C)CC(O)COc1cccc2ccccc12 (stereo unspecified)
109% (inactive)

----------
# Tested on: OVCAR-4 ovarian
# MEASUREMENT_DESCRIPTION: NCI-60 one-dose screen, 48 h (100 = growth as untreated, 0 = no growth, -100 = all killed)
# RECORDED_CONDITIONS: 10 µM
The panel holds about 83,000 compounds, 20% with a hit somewhere; the sample as a whole holds those more often.
PARAMETER: growth (%)
Give the value in % but do not write % after it.

COMPOUND | growth [%]
C#C[C@]1(O)CC[C@H]2[C@@H]3CC=C4c5nc(Nc6ncccn6)sc5CC[C@]4(C)[C@H]3CC[C@@]21C | 67.9

May I ask what growth has been recorded for COc1cc(C)cc2oc3oc(=O)c(C(=O)c4cc5cc(Br)ccc5o4)cc3c(=O)c12 ?
110

Same thing, different compound: Cc1ccc(S(=O)(=O)N/N=C2\CC3CCC2(C)C3(C)C)cc1 (stereo not given)
104

Same thing, different compound: CCCCCCCCCCCCCC[n+]1cccc(C(N)=O)c1
14.5

Same thing, different compound: COc1cc(NCc2ccccc2O)c2ncccc2c1
82.3

----------
# Tested on: A498 renal
# MEASUREMENT_DESCRIPTION: NCI-60 one-dose screen, 48 h (100 = growth as untreated, 0 = no growth, -100 = all killed)
# RECORDED_CONDITIONS: 10 µM unless noted
The panel holds about 83,000 compounds, 20% with a hit somewhere; the sample as a whole holds those more often. The source made the active and inactive calls. How the source made its calls: active means growth percent below 10; inactive means the rest.
PARAMETER: growth

COMPOUND | PARAMETER | OBS_VALUE
O=S(=O)(NCCNc1nccc(-c2c(-c3cccc(F)c3)nc3occn23)n1)c1ccc(C(F)(F)F)cc1 | growth | 78% (inactive)
Ic1ccc2[nH]cc(SSc3c[nH]c4ccc(I)cc34)c2c1 | growth | 40.7% (inactive)

Query growth on A498 renal for C=C(C)[C@@H]1CC[C@]2(C(=O)N3CCN(C)CC3)CC[C@]3(C)[C@H](CC[C@@H]4[C@@]5(C)C/C(=C/c6ccncc6)[C@H](O)C(C)(C)[C@@H]5CC[C@]43C)[C@@H]12
-28.9% [100 µM] (active)

Same thing, different compound: CC1(C)CC[C@]2(C(N)=O)CC[C@]3(C)C(=CC[C@@H]4[C@@]5(C)C/C(=C/c6cccnc6)C(=O)C(C)(C)[C@@H]5CC[C@]43C)[C@@H]2C1
-83.4% [100 µM] (active)

Same thing, different compound: CCCn1ccnc1C(O)c1ccc(OCc2ccccc2)c(OC)c1 (stereo not given)
102% (inactive)

Same thing, different compound: CC(C)CCSC1=CC(=O)c2ccccc2C1=O
98.4% (inactive)

Same thing, different compound: CCC(C)[C@H](NC(=O)NC(=O)NC(=O)CI)C(=O)OC (stereo not given in full)
89.1% (inactive)

Same thing, different compound: CCN(CC)CCSC(=O)C(O)(c1ccccc1)C1CCCC1 (stereo not given)
95.7% (inactive)

Same thing, different compound: CCOC(=O)c1nn(C2CCCCO2)c2ccc(NC(=O)CN3CCCC3)cc12 (stereo not given)
78.9% (inactive)

Same thing, different compound: CCOC(CNC(=O)c1cccc([N+](=O)[O-])c1)OCC
84.5% (inactive)

Hello, the source for this data is PubChem BioAssay (NCI), in case you need it.
